Measured GI50, listed per entry for reference.
System: SR
assay: NCI tumour cell line growth inhibition, 48 h
Active and inactive are the calls of the source. No stated cut-off is given here; in the data, active = GI50 up to about 1.1 µM and inactive = higher.

[
  {
    "molecule": "CN1CN(c2ccccc2)C2(CCN(CCCCCCF)CC2)C1=O",
    "GI50": "> 100 µM (inactive)"
  },
  {
    "molecule": "CS(=O)(=O)C1S(=O)(=O)OCCOS1(=O)=O",
    "GI50": "> 100 µM (inactive)"
  },
  {
    "molecule": "COC(=O)c1ccc(C)cc1C1CN=NC12Cc1c(C)cccc1C2=O (stereo unspecified)",
    "GI50": "33.3 µM (inactive)"
  },
  {
    "molecule": "O=C(CCN1CCOCC1)Nc1ccc2sc3ccccc3c(=O)c2n1",
    "GI50": "44.3 µM (inactive)"
  },
  {
    "molecule": "COC(=O)c1csc([C@@H](OC(=O)[C@H](C)[C@H](CCCC(C)(Cl)Cl)OC(=O)c2csc([C@H](O)CO)n2)C(C)C)n1",
    "GI50": "13.7 µM (inactive)"
  },
  {
    "molecule": "Nc1nc(Cl)c2ncn(Cc3ccc(CCl)cc3)c2n1",
    "GI50": "3.02 µM (inactive)"
  },
  {
    "molecule": "C=CCCC(=O)CC(O)(C(F)(F)F)C(F)(F)F",
    "GI50": "> 100 µM (inactive)"
  },
  {
    "molecule": "Cc1cn(C2CC(O)C(COC(=O)c3ccccc3)O2)c(=O)[nH]c1=O (stereo unspecified)",
    "GI50": "> 100 µM (inactive)"
  },
  {
    "molecule": "CC(=O)OCC(C)(COC(C)=O)N1C(=O)C2C3c4ccccc4C(c4ccccc43)C2C1=O (stereo unspecified)",
    "GI50": "> 100 µM (inactive)"
  },
  {
    "molecule": "CCCCCCCCCCCCCCCCOCC(COP(=O)(O)OCC1OC(n2cc(CC)c(=O)[nH]c2=O)CC1O)OC(=O)CCCCCCCCCCCCCCC (stereo unspecified)",
    "GI50": "> 100 µM (inactive)"
  },
  {
    "molecule": "CN(C)CCNC(=O)c1cccc2c(NC(CCCNC(=N)N)C(=O)O)c3ccccc3[n+](C)c12 (stereo unspecified)",
    "GI50": "> 100 µM (inactive)"
  },
  {
    "molecule": "Cc1nc2ccc(NCCN(C)C)c3c(=O)c4ccccc4n1c23",
    "GI50": "0.439 µM (active)"
  },
  {
    "molecule": "COc1ccc(/C=C/C(=N\\NC(=O)c2ccccc2)c2sc(Nc3ccc([N+](=O)[O-])cc3)nc2C)cc1OC",
    "GI50": "5.18 µM (inactive)"
  },
  {
    "molecule": "COC(COC(=O)N1CCN(C=O)CC1)C1=C(N2CC2)C(=O)C(C)=C(N2CC2)C1=O (stereo unspecified)",
    "GI50": "< 0.01 µM (active)"
  },
  {
    "molecule": "Ic1ncnc2c1ncn2C1CCCO1 (stereo unspecified)",
    "GI50": "> 100 µM (inactive)"
  },
  {
    "molecule": "CN(C)CCOc1ccc(I)cc1Cc1ccccc1",
    "GI50": "2.65 µM (inactive)"
  },
  {
    "molecule": "CNC(=O)OCc1nc(SC)n(C)c1COC(=O)NC",
    "GI50": "71.4 µM (inactive)"
  },
  {
    "molecule": "COc1ccc(/C(Cl)=C(\\CN(C)C)c2ccc(OC)c(OC)c2)cc1OC.[B]",
    "GI50": "> 100 µM (inactive)"
  },
  {
    "molecule": "CCC1(c2ccc(N)cc2)CCC(=O)NC1=O (stereo unspecified) [AMINOGLUTETHIMIDE]",
    "GI50": "> 3820 µM (inactive)"
  },
  {
    "molecule": "CCOC(=O)C1C(c2ccc(OC)cc2)c2c(n[nH]c2O)CC1(C)O (stereo unspecified)",
    "GI50": "> 100 µM (inactive)"
  },
  {
    "molecule": "COC(=O)CSC1CC(=O)c2c(Cl)sc(Cl)c21 (stereo unspecified)",
    "GI50": "66.2 µM (inactive)"
  }
]
